The measured values listed here are drawn from patent US4335249A.

Task for the reader: assign each of the following compounds its reported pest or weed control at 2241.7 g/ha.
System: barnyardgrass (Echinochloa crusgalli)
experiment.summary: Preemergence herbicidal activity, barnyardgrass
Format: in vivo
condition.details: Echinochloa crus-galli, pre-emergence, 336 h; Pre, 2 lb/A
Give bare numbers, in %.

State recorded pest or weed control at 2241.7 g/ha for all listed compounds.
1. CC(Oc1ccc(Oc2ccc(C(F)(F)F)cc2)cc1)C(N)=O (centres unmarked)
2. CCOC(=O)C(C)Oc1ccc(Sc2ccc(C(F)(F)F)cc2C#N)cc1 (centres unmarked)
3. CCOC(=O)C(C)Oc1cccc(Oc2ccc(C(F)(F)F)cc2Cl)c1 (centres unmarked)

Result string:
1. 99
2. 100
3. 30

State recorded pest or weed control at 2241.7 g/ha for all listed compounds.
1. CCC(C)OC(=O)C(C)Oc1ccc(Oc2ccc(C(F)(F)F)cc2Cl)cc1 (centres unmarked)
2. CCOC(=O)C(C)Oc1ccc(Sc2ccc(C(F)(F)F)cc2[N+](=O)[O-])cc1 (centres unmarked)

Result string:
1. 100
2. 95

====

Test system: downybrome (Bromus tectorum)
experiment.summary: Preemergence herbicidal activity, downybrome
Type: in vivo
condition.details: Bromus tectorum, pre-emergence, 336 h, Pre, 4 lb/A
readout.label: pest or weed control at 4483.4 g/ha (%)
Give bare numbers, in %.

Recorded results for 3 compounds are shown here.
CCOC(=O)C(C)Oc1ccc([S+]([O-])c2ccc(C(F)(F)F)cc2)cc1 (stereo not shown) [Example 51]	0
CCOC(=O)C(C)Oc1ccc([S+]([O-])c2cccc(C(F)(F)F)c2)cc1 (stereo not shown) [Example 50]	0
CCOC(=O)C(C)Oc1ccc([S+]([O-])c2ccccc2C(F)(F)F)cc1 (stereo not shown) [Example 49]	0

Next up:
Query string: I have this compound here, CCOC(=O)C(C)Oc1ccc([S+]([O-])c2ccc(C(F)(F)F)cc2Cl)cc1 (stereo not shown) [Example 42] , and I need its recorded pest or weed control at 4483.4 g/ha.
Result string: 40

====

Task for the reader: assign each of the following molecules its reported pest or weed control at 2241.7 g/ha.
System: tomato (Lycopersicon esculentum)
experiment.summary: Postemergence herbicidal activity, tomato
Assay type: in vivo
condition.details: Solanum lycopersicum, post-emergence, 336 h, Post, 2 lb/A
Answers are plain numbers, in %.

CCNC(=O)C(C)Oc1ccc(Oc2ccc(C(F)(F)F)cc2Cl)cc1 (stereo not drawn) [Example 21]	0
COCCOC(=O)C(C)Oc1ccc(Oc2ccc(C(F)(F)F)cc2Cl)cc1 (stereo not drawn) [Example 25]	95

Query string: I have this molecule here, CCOC(=O)C(C)Oc1ccc(Oc2ccc(C(F)(F)F)cc2C#N)cc1 (stereo not drawn) [Example 37] , and I need its recorded pest or weed control at 2241.7 g/ha.
Result string: 30

====

Tested on: barnyardgrass (Echinochloa crusgalli)
experiment.summary: Preemergence herbicidal activity, barnyardgrass
Type: in vivo
condition.details: Echinochloa crus-galli, pre-emergence, 336 h; Pre, 2 lb/A
Description: Using the procedure described below, compounds of the invention are evaluated for control of several of the following plant species: The following est procedure is employed. Seeds of selected crops and weeds are planted in soil in flats. […] The compound to be evaluated is dissolved in acetone, diluted with water, and sprayed over the flats using a carrier volume equivalent to 50 gallons per acre at the rate of application (pounds per acre, lb/A.) specified in the tables.
Task for the reader: assign each of the following compounds its reported pest or weed control at 2241.7 g/ha.
Numbers only, in %.

Recorded results for 3 compounds are shown here.
CCCCCCOC(=O)C(C)Oc1ccc(Oc2ccc(C(F)(F)F)cc2Cl)cc1 (stereo not drawn) [Example 36]	100
CCOC(=O)C(Oc1ccc(Oc2ccc(C(F)(F)F)cc2Cl)cc1)C(C)C (stereo not drawn) [Example 28]	95
CC(Oc1ccc(Oc2ccc(C(F)(F)F)cc2Cl)cc1)C(=O)O (stereo not drawn) [Example 6]	100

State recorded pest or weed control at 2241.7 g/ha for all listed compounds.
1. C=CCOC(=O)C(C)Oc1ccc(Oc2ccc(C(F)(F)F)cc2Cl)cc1 (stereo not drawn) [Example 24]
2. CCN(CC)C(=O)C(C)Oc1ccc(Oc2ccc(C(F)(F)F)cc2Cl)cc1 (stereo not drawn) [Example 5]
3. CCCOC(=O)C(C)Oc1ccc(Oc2ccc(C(F)(F)F)cc2Cl)cc1 (stereo not drawn) [Example 32]
4. CCOC(=O)C(C)Oc1ccc(Sc2ccc(C(F)(F)F)cc2Cl)cc1 (stereo not drawn) [Example 3]
5. CC(Oc1ccc(Oc2ccc(C(F)(F)F)cc2Cl)cc1)C(N)=O (stereo not drawn) [Example 18]

Result string:
100
60
100
95
100

Query string: I have this compound here, CC(C#N)Oc1ccc(Oc2ccc(C(F)(F)F)cc2)cc1 (stereo not drawn) [Example 41] , and I need its recorded pest or weed control at 2241.7 g/ha.
Result string: 99
